Reference source for all entries: BigSolDB 2.1

condition-context: in DMF, 283.15 K

{"molecule": "O=C(NC[C@H]1CN(c2ccc(N3CCOCC3=O)cc2)C(=O)O1)c1ccc(Cl)s1", "solubility (mole fraction)": 0.00662}

----------
condition-context: in THF, 288.15 K

{"molecule": "O=C(NC[C@H]1CN(c2ccc(N3CCOCC3=O)cc2)C(=O)O1)c1ccc(Cl)s1", "solubility (mole fraction)": 0.000263}

----------
condition-context: in DMAc, 278.15 K

{"molecule": "O=C(NC[C@H]1CN(c2ccc(N3CCOCC3=O)cc2)C(=O)O1)c1ccc(Cl)s1", "solubility (mole fraction)": 0.00978}

----------
condition-context: in ethyl acetate, 278.15 K
measure-name: solubility (mole fraction)

{"molecule": "O=C(NC[C@H]1CN(c2ccc(N3CCOCC3=O)cc2)C(=O)O1)c1ccc(Cl)s1", "measure-name": "solubility (mole fraction)", "numeric-readout": "5.17e-05"}

----------
condition-context: in THF, 298.15 K
measure-name: solubility (mole fraction)

{"molecule": "O=C(NC[C@H]1CN(c2ccc(N3CCOCC3=O)cc2)C(=O)O1)c1ccc(Cl)s1", "result": 0.000328}

----------
condition-context: in DMAc, 283.15 K

{"molecule": "O=C(NC[C@H]1CN(c2ccc(N3CCOCC3=O)cc2)C(=O)O1)c1ccc(Cl)s1", "solubility (mole fraction)": 0.0108}

----------
condition-context: in DMF, 303.15 K
measure-name: solubility (mole fraction)

{"molecule": "O=C(NC[C@H]1CN(c2ccc(N3CCOCC3=O)cc2)C(=O)O1)c1ccc(Cl)s1", "result": 0.0106}

----------
condition-context: in ethyl acetate, 313.15 K
measure-name: solubility (mole fraction)

{"molecule": "O=C(NC[C@H]1CN(c2ccc(N3CCOCC3=O)cc2)C(=O)O1)c1ccc(Cl)s1", "measure-name": "solubility (mole fraction)", "numeric-readout": 0.000128}

----------
condition-context: in ethyl acetate, 308.15 K
measure-name: solubility (mole fraction)

{"molecule": "O=C(NC[C@H]1CN(c2ccc(N3CCOCC3=O)cc2)C(=O)O1)c1ccc(Cl)s1", "measure-name": "solubility (mole fraction)", "result": 0.000113}

----------
condition-context: in DMAc, 293.15 K
measure-name: solubility (mole fraction)

{"molecule": "O=C(NC[C@H]1CN(c2ccc(N3CCOCC3=O)cc2)C(=O)O1)c1ccc(Cl)s1", "numeric-readout": 0.0131}

----------
condition-context: in THF, 278.15 K

{"molecule": "O=C(NC[C@H]1CN(c2ccc(N3CCOCC3=O)cc2)C(=O)O1)c1ccc(Cl)s1", "solubility (mole fraction)": 0.000205}

----------
condition-context: in DMAc, 308.15 K
measure-name: solubility (mole fraction)

{"molecule": "O=C(NC[C@H]1CN(c2ccc(N3CCOCC3=O)cc2)C(=O)O1)c1ccc(Cl)s1", "numeric-readout": 0.0173}

----------
condition-context: in ethyl acetate, 303.15 K

{"molecule": "O=C(NC[C@H]1CN(c2ccc(N3CCOCC3=O)cc2)C(=O)O1)c1ccc(Cl)s1", "solubility (mole fraction)": 0.0001}

----------
condition-context: in THF, 303.15 K

{"molecule": "O=C(NC[C@H]1CN(c2ccc(N3CCOCC3=O)cc2)C(=O)O1)c1ccc(Cl)s1", "solubility (mole fraction)": 0.000359}
